Tested on: K-562 leukemia
Assay: NCI tumour cell line growth inhibition, 48 h
value.type: TGI

COc1ccccc1-c1cc(/C=C2\C(=O)Nc3ncc(Br)cc32)cc(Br)c1O	> 25 µM
CCOC(=O)CC(=O)C(=O)NNC1=NCCN1	> 100 µM
CC1C(=NO)C(C)C(c2ccccc2)N(N=O)C1c1ccccc1 (configuration not stated)	> 100 µM
CN(C)C(=S)N1C(=S)N(c2ccccc2)C(=Nc2ccccc2)C1=Nc1ccccc1	> 100 µM
CCOC(=O)C(NC(=O)C(CCCCNP(=O)(OCC)OCC)NC(=O)C(C)NC(C)=O)C(C)C (configuration not stated)	> 100 µM

Query: Consider the compound shown here: COc1cccc(NC(=O)C(C)(C)C)c1C=O What is its recorded TGI?
Result: > 100 µM

Query: CCCOc1ccc(-c2nc(-c3ccc(N=Cc4ccc(N(CCOS(C)(=O)=O)CCOS(C)(=O)=O)cc4C)cc3)cs2)cc1 ?
Result: > 100 µM

Query: Same again, this time with O=Nc1c(-c2c(O)[nH]c3ccccc23)[nH]c2ccccc12
Result: > 100 µM

Query: Similarly, CC(/C=C/C(=O)c1sc(-n2nc(-c3ccccc3)cc2-c2ccccc2)nc1C)=C\c1ccccc1 ?
Result: > 100 µM

Query: Then O=Cc1ccc(-c2ccc(-c3nc4ccccc4[nH]3)cc2)s1 ?
Result: 53 µM

Query: Would you mind doing CCn1ncc2c1nc(-c1ccccc1)c[n+]2[O-] as well?
Result: > 100 µM

Query: Can you handle NC(=O)c1ccc(NS(=O)(=O)c2ccc(N)cc2)nc1 next?
Result: > 100 µM

Query: Follow-up item: N#CC(/C(=N\NC(=O)c1ccncc1)C(=O)Nc1ccc([N+](=O)[O-])cc1[N+](=O)[O-])c1nc(-c2ccc(Br)cc2)cs1 (configuration not stated)
Result: > 100 µM

Query: Likewise for O=C(O)C1=C(C(=O)Nc2ccccc2)C2C=CC1C2 (configuration not stated) ?
Result: > 100 µM

Query: Would you mind doing N=c1oc2c(Br)cc(Br)cc2cc1C(=O)Nc1ccccn1 as well?
Result: > 100 µM

Query: Lookup N#CC1(C#N)NC(c2cccnc2)C(C#N)(C#N)NC1c1cccnc1 (configuration not stated)
Result: > 100 µM

Query: Can you check C[C@@H](N)C1CCC(C(=O)Nc2ccncc2)CC1 (some centres not stated) next?
Result: > 100 µM

Query: Item: O=c1oc2ccccc2n1P(=O)(n1c(=O)oc2ccccc21)n1c(=O)oc2ccccc21
Result: > 100 µM

Query: Do the same for O=C(NO)c1ccc(OCc2cccc(Cl)c2)cc1 please
Result: > 31.6 µM

Query: Entry to check: Cc1nc2ccccn2c1NC(=O)NNC(=S)Nc1ccc(Br)cc1
Result: 54.6 µM

Query: Field entry: O=C(/C=C/c1ccc(O)c(O)c1)OCc1ccccc1
Result: 61 µM

Query: Here is the next compound: Cc1ccc2[nH]c3c(C)c4c(c(C)c3c2c1)CN(C)C=C4
Result: > 38.9 µM

// provenance: PubChem BioAssay (NCI)
